Ref: patent US7138361B2

- Tested on: pigweed (Amaranthus retroflexus)
- ASSAY_DETAILS: Test C preemergence
- Format: in vivo
- PROTOCOL_CONDITIONS: preemergence; Rate 250 g/ha; scale 0 to 100, 0 no effect, 100 complete control
READOUT_LABEL: Plant response rating, Pigweed

{"MOLECULE": "CCCOc1cc(N2CCC(n3ccc(C(C)(C)C)n3)C2=O)ccc1C (stereo not drawn)", "ASSAYED_SYSTEM": "pigweed (Amaranthus retroflexus)", "READOUT_LABEL": "Plant response rating, Pigweed", "READING": 0}
{"MOLECULE": "CCC(CC)c1ccn(C2CCN(c3ccc(C)c(OC)c3)C2=O)n1 (stereo not drawn)", "ASSAYED_SYSTEM": "pigweed (Amaranthus retroflexus)", "READOUT_LABEL": "Plant response rating, Pigweed", "READING": 100}
{"MOLECULE": "CC(C)c1cccc(N2CCC(n3ccc(C(C)(C)C)n3)C2=O)c1 (stereo not drawn)", "ASSAYED_SYSTEM": "pigweed (Amaranthus retroflexus)", "READOUT_LABEL": "Plant response rating, Pigweed", "READING": 20}
{"MOLECULE": "CCOc1cc(N2CCC(n3ccc(C(C)(C)C)n3)C2=O)ccc1C (stereo not drawn)", "ASSAYED_SYSTEM": "pigweed (Amaranthus retroflexus)", "READOUT_LABEL": "Plant response rating, Pigweed", "READING": 90}
{"MOLECULE": "CCC(C)c1ccn(C2CCN(c3ccc(Br)c(OC)c3)C2=O)n1 (stereo not drawn)", "ASSAYED_SYSTEM": "pigweed (Amaranthus retroflexus)", "READOUT_LABEL": "Plant response rating, Pigweed", "READING": 100}
{"MOLECULE": "CCC(C)c1ccn(C2CCN(c3ccc(C)c(OC)c3)C2=O)n1 (stereo not drawn)", "ASSAYED_SYSTEM": "pigweed (Amaranthus retroflexus)", "READOUT_LABEL": "Plant response rating, Pigweed", "READING": 0}
{"MOLECULE": "CC(C)(C)c1ccn(C2CCN(c3ccc(F)c(Br)c3)C2=O)n1 (stereo not drawn)", "ASSAYED_SYSTEM": "pigweed (Amaranthus retroflexus)", "READOUT_LABEL": "Plant response rating, Pigweed", "READING": 100}
{"MOLECULE": "Cc1cc(C)nc(N2CCC(n3ccc(C(C)(C)C)n3)C2=O)c1 (stereo not drawn)", "ASSAYED_SYSTEM": "pigweed (Amaranthus retroflexus)", "READOUT_LABEL": "Plant response rating, Pigweed", "READING": 50}
{"MOLECULE": "CCCC(C)c1ccn(C2SCN(c3cccc(OC(F)(F)F)c3)C2=O)n1 (stereo not drawn)", "ASSAYED_SYSTEM": "pigweed (Amaranthus retroflexus)", "READOUT_LABEL": "Plant response rating, Pigweed", "READING": 100}

* * *

- Tested on: pigweed (Amaranthus retroflexus)
- ASSAY_DETAILS: Test C preemergence
- Assay type: in vivo
- PROTOCOL_CONDITIONS: Rate 125 g/ha; scale 0 to 100, 0 no effect, 100 complete control
- Excerpt: […]
Recorded Plant response rating, Pigweed for the following compounds

{"COMPOUND": "CC(C)c1cccc(N2CCC(n3ccc(C(C)(C)C)n3)C2=O)c1 (stereo not drawn)", "ASSAYED_SYSTEM": "pigweed (Amaranthus retroflexus)", "Plant response rating, Pigweed": 20}
{"COMPOUND": "Cc1ccc(N2CCC(n3ccc(C(C)(C)C)n3)C2=O)cc1I (stereo not drawn)", "ASSAYED_SYSTEM": "pigweed (Amaranthus retroflexus)", "Plant response rating, Pigweed": 20}
{"COMPOUND": "CC(C)Oc1cccc(N2CCC(n3ccc(C(C)C)n3)C2=O)c1 (stereo not drawn)", "ASSAYED_SYSTEM": "pigweed (Amaranthus retroflexus)", "Plant response rating, Pigweed": 70}
{"COMPOUND": "CCC(C)c1ccn(C2CCN(c3ccc(F)c(C(F)(F)F)c3)C2=O)n1 (stereo not drawn)", "ASSAYED_SYSTEM": "pigweed (Amaranthus retroflexus)", "Plant response rating, Pigweed": 100}
{"COMPOUND": "CCCC(C)c1ccn(C2SCN(c3cccc(C(F)(F)F)c3)C2=O)n1 (stereo not drawn)", "ASSAYED_SYSTEM": "pigweed (Amaranthus retroflexus)", "Plant response rating, Pigweed": 0}
{"COMPOUND": "Cc1cc(C)nc(N2CCC(n3ccc(C(C)(C)C)n3)C2=O)c1 (stereo not drawn)", "ASSAYED_SYSTEM": "pigweed (Amaranthus retroflexus)", "Plant response rating, Pigweed": 50}
{"COMPOUND": "CCOc1cccc(N2CCC(n3ccc(C(C)C)n3)C2=O)c1 (stereo not drawn)", "ASSAYED_SYSTEM": "pigweed (Amaranthus retroflexus)", "Plant response rating, Pigweed": 70}
{"COMPOUND": "CCCC(C)c1ccn(C2SCN(c3cccc(OC(F)(F)F)c3)C2=O)n1 (stereo not drawn)", "ASSAYED_SYSTEM": "pigweed (Amaranthus retroflexus)", "Plant response rating, Pigweed": 0}
{"COMPOUND": "CC(C)(C)c1ccn(C2CCN(c3cccc(I)c3)C2=O)n1 (stereo not drawn)", "ASSAYED_SYSTEM": "pigweed (Amaranthus retroflexus)", "Plant response rating, Pigweed": 10}
